target: Glucocorticoid receptor (Homo sapiens); experiment: qHTS assay to identify small molecule antagonists of the glucocorticoid receptor (GR) signaling pathway (AID 720692); settings: GR-bla HeLa, beta-lactamase FRET ratio, dexamethasone-stimulated, 18 h; series mostly up to 58.5 µM
Inconclusive results are not listed. Active and inactive are the calls of the source. The call rests on the fitted dose curve; in most records, active means well fitted inhibition curve with a large enough effect in the signal ratio in the repeat runs (not every such curve was filed as active); inconclusive means weak or mixed curves, or effect the other way; inactive means no such curve, though single readings can be large or run the other way; the % refers to the signal ratio.
Please state which outcome applies, choosing from yes (active), no (inactive)

Lookup: Test call for this compound, please: FC(F)(F)C(F)(F)C(F)(F)C(F)(F)CCI
Found: no

Lookup: Test call for this compound, please: O=CNNC=O
Found: no

Lookup: Test call for this compound, please: CCCCCC
Found: no

Lookup: Test call for this compound, please: O=NN(CCCl)C(=O)NCCCl
Found: no

Lookup: Test call for this compound, please: CC(C)C(O)C(C)(C)CO (stereo not given)
Found: no

Lookup: Test call for this compound, please: CCCCCCCCCCCCCCN(C)C
Found: no

Lookup: Test call for this compound, please: C=CC(=O)O
Found: no

Lookup: Test call for this compound, please: CC12CC3CC(C)(C1)CC(N)(C3)C2
Found: no

Lookup: Test call for this compound, please: c1ccc(CNc2ncnc3c2ncn3C2CCCCO2)cc1 (stereo not given)
Found: no

Lookup: Test call for this compound, please: CC(C)(C(=O)c1cccnc1)c1cccnc1
Found: no

Lookup: Test call for this compound, please: c1ccc2sc(SSc3nc4ccccc4s3)nc2c1
Found: no

Lookup: Test call for this compound, please: CCC(Cl)CC(Cl)C(Cl)C(Cl)C(Cl)C(C)Cl (stereo not given)
Found: no

Lookup: Test call for this compound, please: Cc1ccc2c(c1)CCCN2
Found: no

Lookup: Test call for this compound, please: O=c1[nH]c2cc(C(F)(F)F)c(N3CCOCC3)cc2n(CP(=O)(O)O)c1=O
Found: no

Lookup: Test call for this compound, please: C=Cc1ccc(OC(C)=O)cc1
Found: no

Lookup: Test call for this compound, please: C1CCCCC1
Found: no

Lookup: Test call for this compound, please: CCCCCc1ccco1
Found: yes

Lookup: Test call for this compound, please: CC(C)C(=O)OCCOc1ccccc1
Found: no

Lookup: Test call for this compound, please: CCc1ccc(C)cc1
Found: no

Lookup: Test call for this compound, please: CC(=O)C(C)=O
Found: no

Lookup: Test call for this compound, please: CC(C)Cc1ccc(CC(=O)O)cc1
Found: no

Lookup: Test call for this compound, please: O[C@@H](CNC[C@H](O)[C@H]1CCc2cc(F)ccc2O1)[C@@H]1CCc2cc(F)ccc2O1
Found: yes

Lookup: Test call for this compound, please: Cc1cn([C@H]2C[C@H](F)[C@@H](CO)O2)c(=O)[nH]c1=O
Found: no

Lookup: Test call for this compound, please: Cc1cc([N+](=O)[O-])ccc1N
Found: no

Lookup: Test call for this compound, please: CC(C)OC(=O)c1ccccc1C(=O)OC(C)C
Found: no

Lookup: Test call for this compound, please: O=C1OC[C@H](Cc2cccc(O)c2)[C@H]1Cc1cccc(O)c1
Found: no

Lookup: Test call for this compound, please: C=CC(=O)NC(C)C
Found: no

Lookup: Test call for this compound, please: O=C(CCS)OCC(COC(=O)CCS)(COC(=O)CCS)COC(=O)CCS
Found: no

Lookup: Test call for this compound, please: O=C1OC(=O)c2c(Br)c(Br)c(Br)c(Br)c21
Found: no

Lookup: Test call for this compound, please: CC(=O)NNC(C)=O
Found: no

* * *

Biological target: Thyrotropin-releasing hormone receptor (Homo sapiens)
Assay: qHTS assay to identify small molecule antagonists of the thyrotropin-releasing hormone receptor (TRHR) signaling pathway (AID 1346877)
Conditions: TRHR-HEK293, TRH-induced calcium fluorescence, antagonist mode; series mostly up to 51.3 µM
Procedure: National Center for Advancing Translational Sciences [NCATS] NIH Chemical Genomics Center [NCGC] U.S. Environmental Protection Agency [EPA] National Institutes of Environmental Health Sciences [NIEHS] National Toxicology Program [NTP] […] The TRHR-Hek293 cells were dispensed at 1500cells/4uL/well in 1536-well black-clear bottom plates using a Multidrop dispenser. […] The fluorescence intensity in the plates was measured using FDSS 7000EX kinetic plate reader for 3 min at 1 sec intervals. […]
Activity calls are given as the source filed them. The call rests on the fitted dose curve; in most records, active means well fitted inhibition curve with a large enough effect in the repeat runs (not every such curve was filed as active); inconclusive means weak or mixed curves; inactive means flat fitted curve, though single readings scatter.
REPORTED_PROPERTY: activity, negative = inhibition

Lookup: activity, negative = inhibition for O=NN(CCCl)C(=O)NCCCl ?
Found: inactive

Lookup: activity, negative = inhibition for O=C(O)c1cc(Cl)cc(Cl)c1O ?
Found: inactive

Lookup: activity, negative = inhibition for CCN(CC)c1cccc(O)c1 ?
Found: inactive

* * *

test: qHTS assay to identify aromatase inhibitors - cell viability counter screen (AID 743084); details: MCF-7 aro ERE viability, CellTiter-Fluor, 24 h; series mostly up to 70.3 µM;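 further: cells stimulated with testosterone during compound exposure; nearly all actives have a fitted effect of over 55% in size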
Results filed as inconclusive are left out. Calls of active or inactive are those of the source. The call rests on the fitted dose curve; in most records, active means well fitted cell-killing curve with a large enough effect in the repeat runs; inconclusive means weak or mixed curves, or effect the other way; inactive means no such curve, though single readings can be large or run the other way.
Please state which outcome applies, choosing from active, inactive

Lookup: Test call for this compound, please: O=C(O)c1cc(Cl)cc(Cl)c1O
Found: inactive

Lookup: Test call for this compound, please: CCCc1nc2c(C)cc(-c3nc4ccccc4n3C)cc2n1Cc1ccc(-c2ccccc2C(=O)O)cc1
Found: inactive

Lookup: Test call for this compound, please: NC(=O)c1ccccc1[N+](=O)[O-]
Found: inactive

Lookup: Test call for this compound, please: CC1CCC(C(C)CS)CC1S (stereo not given)
Found: inactive

Lookup: Test call for this compound, please: COc1ccc(C2C(=O)c3ccccc3C2=O)cc1
Found: inactive

Lookup: Test call for this compound, please: Cc1cccc(C)c1NC(=O)c1cc(S(N)(=O)=O)c(Cl)cc1O
Found: inactive

Lookup: Test call for this compound, please: O=[N+]([O-])C1(Br)COCOC1
Found: active

Lookup: Test call for this compound, please: C/C(C=O)=C\c1ccccc1
Found: inactive

Lookup: Test call for this compound, please: O=NN(CCCl)C(=O)NCCCl
Found: inactive

Lookup: Test call for this compound, please: c1ccc2sc(SSc3nc4ccccc4s3)nc2c1
Found: inactive

Lookup: Test call for this compound, please: O=C1NC(=O)c2cccc3cccc1c23
Found: inactive

Lookup: Test call for this compound, please: COc1ccc(N)c([N+](=O)[O-])c1
Found: inactive

Lookup: Test call for this compound, please: c1ccc(CCCc2ccncc2)cc1
Found: inactive

Lookup: Test call for this compound, please: CN1CCCN(C(c2ccccc2)c2ccc(Cl)cc2)CC1 (stereo not given)
Found: active

Lookup: Test call for this compound, please: O=C1OC[C@H](Cc2cccc(O)c2)[C@H]1Cc1cccc(O)c1
Found: inactive

Lookup: Test call for this compound, please: O=C(Nc1ccc(C(=O)O)c(O)c1)c1ccccc1
Found: inactive

Lookup: Test call for this compound, please: CCCCCCCCCCCC(=O)OCC(O)CO (stereo not given)
Found: inactive

Lookup: Test call for this compound, please: CC1C(C)(C)C2=C(C(=O)CCC2)C1(C)C (stereo not given)
Found: inactive

Lookup: Test call for this compound, please: CN1C(CSCC(F)(F)F)Nc2cc(Cl)c(S(N)(=O)=O)cc2S1(=O)=O (stereo not given)
Found: inactive

Lookup: Test call for this compound, please: Cc1cc([N+](=O)[O-])ccc1N
Found: active

Lookup: Test call for this compound, please: CCN(Cc1cccc(S(=O)(=O)O)c1)c1ccc(C(=C2C=CC(=[N+](CC)Cc3cccc(S(=O)(=O)O)c3)C=C2)c2ccc(O)cc2S(=O)(=O)[O-])cc1
Found: active

Lookup: Test call for this compound, please: Cc1c(C2(c3cc(Br)c(O)c(Br)c3C)OS(=O)(=O)c3ccccc32)cc(Br)c(O)c1Br
Found: active

Lookup: Test call for this compound, please: COc1cc(NC(C)CCCN)c2ncccc2c1 (stereo not given)
Found: inactive

Lookup: Test call for this compound, please: C=CC(=O)O
Found: inactive

Lookup: Test call for this compound, please: O=C(O)c1cccc(C[C@@H]2COc3ccc(OCc4nc5cc(F)ccc5s4)cc3[C@@H]2O)c1
Found: inactive

* * *

test: qHTS assay to identify small molecule antagonists of the sonic hedgehog signaling (Shh) pathway (AID 1259369); details: NIH/3T3 Gli1-Luc reporter, Shh antagonist, luminescence 24 h; series mostly up to 92.4 µM; further: nearly all actives have a fitted effect of over 45% in size
Results filed as inconclusive are left out. The source made the active and inactive calls. Calls follow the shape of the full dose curve.
Please state which outcome applies, choosing from active, inactive

Lookup: Test call for this molecule, please: O=C(Nc1ccc(C(=O)O)c(O)c1)c1ccccc1
Found: inactive

Lookup: Test call for this molecule, please: CC(C)CC(O)CC(C)C
Found: inactive

Lookup: Test call for this molecule, please: CCCCCCCCCCCCCC(=O)OCC(O)CO (stereo not drawn)
Found: inactive

Lookup: Test call for this molecule, please: CCCCCCCC(=O)OCCCCCC
Found: inactive

Lookup: Test call for this molecule, please: CC(C)c1ccc(C#N)cc1
Found: inactive

Lookup: Test call for this molecule, please: O=C(O)CCCc1c[nH]c2ccccc12
Found: inactive

Lookup: Test call for this molecule, please: N[C@@H](Cc1cc(I)c(O)c(I)c1)C(=O)O
Found: inactive

Lookup: Test call for this molecule, please: O=C1CC[C@@H](C(=O)O)N1
Found: inactive

Lookup: Test call for this molecule, please: CC(C)(C)C1(CCc2ccc(Cl)cc2)CO1 (stereo not drawn)
Found: inactive

Lookup: Test call for this molecule, please: CS(=O)(=O)c1ccc([C@@H](C[C@H]2CCC(=O)C2)C(=O)Nc2cnccn2)cc1Cl
Found: inactive

Lookup: Test call for this molecule, please: Nc1cccc2c(N)cccc12
Found: active

Lookup: Test call for this molecule, please: Nc1nc2ccc(OC(F)(F)F)cc2s1
Found: inactive

Lookup: Test call for this molecule, please: CCN(Cc1cccc(S(=O)(=O)O)c1)c1ccc(C(=C2C=CC(=[N+](CC)Cc3cccc(S(=O)(=O)O)c3)C=C2)c2ccc(O)cc2S(=O)(=O)[O-])cc1
Found: active

Lookup: Test call for this molecule, please: CC(O)Cn1cnc2c1c(=O)n(C)c(=O)n2C (stereo not drawn)
Found: inactive

Lookup: Test call for this molecule, please: COc1ccc(C2C(=O)c3ccccc3C2=O)cc1
Found: inactive

Lookup: Test call for this molecule, please: CC[C@H]1OC(=O)[C@H](C)[C@@H](O[C@H]2C[C@@](C)(OC)[C@@H](O)[C@H](C)O2)[C@H](C)[C@@H](O[C@@H]2O[C@H](C)C[C@H](N(C)C)[C@H]2O)[C@](C)(O)C[C@@H](C)/C(=N\OCOCCOC)[C@H](C)[C@@H](O)[C@]1(C)O
Found: active

Lookup: Test call for this molecule, please: COc1cc(NC(C)CCCN)c2ncccc2c1 (stereo not drawn)
Found: inactive

Lookup: Test call for this molecule, please: CC(C)C1CCC(C(=O)N[C@H](Cc2ccccc2)C(=O)O)CC1 (stereo partly drawn)
Found: inactive
